Data credit: ChEMBL document CHEMBL4825662

Assay: Kinetic solubility of compound in PBS at 200 uM at pH 7.4 by LC-MS/LC-UV analysis
Assay type: physicochemical
Conditions: read-out: Kinetic_solubility
resultType: solubility kinetic at 200 µM (µM)
Give bare numbers, in µM.

CC(C)CCn1c(CN2C(=O)C3(CC3)c3ccccc32)nc2cc(CN)ccc21
155

Now look at this entry.
Which measured solubility kinetic at 200 µM value corresponds to `CC(C)CCn1c(CN2C(=O)C3(CCCC3)c3ccncc32)nc2cc(CN)ccc21` ? 160

---

Assay: Clearance in CD1 mouse at 1 mg/kg, iv measured after 0.083 to 24 hrs by UHPLC-TOF method
Assay type: ADME, organism-based
Conditions: in vivo, time 0.083-24 hrs
// NB: equality with 60 mL/min/kg counts as no (0); only clearance strictly below is yes (1)

The following compounds have reported results that may help.
NCc1ccc2c(c1)nc(CN1C(=O)C3(CC3)c3cccc(F)c31)n2CCCC(F)(F)F
no (0)
CC(C)CCn1c(CN2C(=O)C3(CC3)c3ccccc32)nc2cc(CN)ccc21
no (0)
NCc1ccc2c(c1)nc(CN1C(=O)C3(CC3)c3ccc(F)cc31)n2C1CCC(O)CC1 (stereo unspecified)
no (0)

Does `NCc1ccc2c(c1)nc(CN1C(=O)C3(CC3)c3ccc(F)cc31)n2C1CCOCC1` have clearance strictly under 60 mL/min/kg? yes (1)

Dear colleague, could you confirm whether clearance of `NCc1ccc2c(c1)nc(CN1C(=O)C3(CC3)c3ccc(F)cc31)n2CCCC(F)(F)F` falls below 60 mL/min/kg? Thanks. yes (1)

Does this compound meet the criterion clearance < 60 mL/min/kg? `CC(C)CCn1c(CN2C(=O)C3(CC3)c3cccnc32)nc2cc(CN)ccc21` no (0)
